- Test system: lymphoma cell lines
- Assay comment: Cytotoxicity in lymphoma cell line panel (trypan blue exclusion, Vicell)
- Assay type: cell-based
- Condition parameters: 6 of 7 (all but one) lymphoma lines, 72 h
Measured attribute: IC50

Please tell me: IC50 of COc1ccc(N2C(=O)/C(=C/c3ccc([N+](=O)[O-])s3)SC2=S)cc1 , system lymphoma cell lines?
< 1000 nM

----------
Give measured pIC50 for each item. Keep answers brief.
- Study target: recombinant PDI (Homo sapiens, UniProt P07237)
- Sequence (P07237 18-508, species assumed): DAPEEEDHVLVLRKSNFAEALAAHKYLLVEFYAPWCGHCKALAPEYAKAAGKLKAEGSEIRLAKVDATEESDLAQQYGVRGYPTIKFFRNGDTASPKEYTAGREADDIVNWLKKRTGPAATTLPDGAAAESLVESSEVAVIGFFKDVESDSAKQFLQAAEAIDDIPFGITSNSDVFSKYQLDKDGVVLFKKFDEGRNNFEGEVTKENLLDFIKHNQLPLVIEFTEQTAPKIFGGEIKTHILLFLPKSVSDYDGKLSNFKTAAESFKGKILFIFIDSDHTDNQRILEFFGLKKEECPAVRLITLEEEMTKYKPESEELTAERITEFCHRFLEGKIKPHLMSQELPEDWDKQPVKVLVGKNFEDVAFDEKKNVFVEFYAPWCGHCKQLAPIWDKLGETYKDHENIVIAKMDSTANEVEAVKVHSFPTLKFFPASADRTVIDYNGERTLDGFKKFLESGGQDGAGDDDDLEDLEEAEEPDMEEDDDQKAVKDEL
- Assay comment: PDI activity assay (di-eosin-di-gluthathione, eGSSG)
- Condition parameters: recombinant PDI, di-eosin-di-gluthathione assay
// field semantics: pIC50 = negative decimal log of concentration (mol/L)

If you can, please state the reported pIC50 value of C=CCc1cccc(/C=C2\SC(=S)N(c3ccc(OC)cc3)C2=O)c1O [642-25] .
5.51

Moving on to COc1ccc(N2C(=O)/C(=C/c3ccc([N+](=O)[O-])s3)SC2=S)cc1 [642-Parent]
5.61

Moving on to N#Cc1ccc(N2C(=O)C(=Cc3ccc([N+](=O)[O-])s3)SC2=S)cc1 [642-23]
5.72

Moving on to COc1ccc(N2C(=O)/C(=C/c3cccc([N+](=O)[O-])c3)SC2=S)cc1 [642-24]
5.06

----------
- System: MM cell lines
- Assay comment: Cytotoxicity in MM cell line panel (trypan blue exclusion, Vicell)
- Format: cell-based
- Condition parameters: all 8 MM cell lines tested, 72 h, listed as CCF642
Measured attribute: IC50

If you can, please state the reported IC50 value of COc1ccc(N2C(=O)/C(=C/c3ccc([N+](=O)[O-])s3)SC2=S)cc1 [642-Parent] .
~500 nM

----------
- Study target: recombinant PDI (Homo sapiens)
- Assay comment: PDI activity assay (di-eosin-di-gluthathione, eGSSG)
- Format: biochemical
- Condition parameters: compound at 10 μM
Classify as follows. Reported PDI Activity at 10 μM (%) greater than or equal to 40%: 1 (yes). Reported PDI Activity at 10 μM (%) below: 0 (no).

Hi team, for COc1ccc(N2C(=O)C(=Cc3ccc(C(=O)O)s3)SC2=S)cc1 , is the recorded PDI Activity at 10 μM (%) at or above 40%?
1 (yes)

Moving on to COc1ccc(N2C(=O)/C(=C/c3ccc([N+](=O)[O-])s3)SC2=S)cc1
0 (no)

Moving on to COc1ccc(N2C(=O)C(=Cc3ccc(C(F)(F)F)s3)SC2=S)cc1
1 (yes)

Moving on to N#Cc1ccc(N2C(=O)C(=Cc3ccc([N+](=O)[O-])s3)SC2=S)cc1
0 (no)

Moving on to COc1ccc(N2C(=O)/C(=C/c3cccc([N+](=O)[O-])c3)SC2=S)cc1
1 (yes)
